- Test Target: PGD2 receptor (Homo sapiens, UniProt Q13258)
- Construct: A suspension adjusted to contain the platelets at a final concentration of 5×10^8/ml was warmed at 37° C; endogenous in cells; host or cells: washed human platelets from a healthy volunteer
- Sequence (Q13258 whole entry): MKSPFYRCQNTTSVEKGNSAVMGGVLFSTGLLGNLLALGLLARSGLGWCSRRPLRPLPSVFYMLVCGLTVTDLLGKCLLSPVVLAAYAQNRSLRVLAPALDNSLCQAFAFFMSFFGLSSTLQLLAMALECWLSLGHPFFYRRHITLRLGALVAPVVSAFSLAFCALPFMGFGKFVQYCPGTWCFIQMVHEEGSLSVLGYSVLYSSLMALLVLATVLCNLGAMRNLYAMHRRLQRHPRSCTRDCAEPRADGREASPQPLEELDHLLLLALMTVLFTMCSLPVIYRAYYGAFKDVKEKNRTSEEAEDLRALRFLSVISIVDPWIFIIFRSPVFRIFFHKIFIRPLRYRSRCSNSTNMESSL
- Assay Method Text: Binding activity to PGD2 receptor ([3H]PGD2, human platelet membrane fraction)
- Run Conditions: comparative experiment in accordance with Experiment 1; read-out: Experiment 1 Antagonistic activity against PGD2 receptor IC50
pIC50: −log10 of the molar value.
Quantity Kind: pIC50

[I] CC1(C)[C@H]2C[C@H](C/C=C\CCCC(=O)O)[C@@H](NC(=O)c3csc4ccccc34)[C@@H]1C2 [B-1, reference compound]
[II] Cc1cccn1S(=O)(=O)c1ccc(C(=O)N[C@@H]2[C@@H](CCCC/C=C/C(=O)O)C[C@H]3C[C@@H]2C3(C)C)s1 [II-7I-55a]
// returns I or II , whichever has the lower pIC50 Identify your pick by its label.
I
